ASSAY NAME: physchem
Assay type: physicochemical
Marks after values point to notes of the source that are not given here.
PROPERTY MEASURED: LogP

[[record]]
compound = "Cc1ccc(C(F)(F)CNC(=O)c2cc(C)ncc2Oc2cccc(C3CC3)c2F)c(C)c1"
property_measured = "LogP"
data_value = "4.46^[a]"

[[record]]
compound = "CCc1ccc(C(F)(F)CNC(=O)c2cc(Cl)ncc2Oc2cccc(C3CC3)c2)c(Cl)c1"
property_measured = "LogP"
data_value = "5.49^[a]"


Parameters: items (list). Returns: LogP for each item.
1. CCc1ccc(C(F)(F)CNC(=O)c2cc(CC)ncc2Oc2cccc(C3CC3)c2F)c(Cl)c1
2. CO/N=C(/C)c1cc(C(=O)NCCc2ccc(C)cc2C)c(Oc2cccc(C(F)(F)F)c2)cn1
3. Cc1ccc(CCNC(=O)c2cc(Cl)ncc2Oc2cccc(C3CCC3)c2)c(C)c1
4. COc1cccc(Oc2cnc(C)cc2C(=O)NCC(F)c2ccc(C)cc2Cl)c1 (stereo not shown)
5. O=C(NCC(F)c1ccc(C2CC2)cc1Cl)c1cc(Cl)ncc1Oc1cccc(C(F)(F)F)c1 (racemic)

1: 5.45^[a]; 2: 4.85^[a]; 3: 5.84^[a]; 4: 3.62^[a]; 5: 5.08^[a]

Field: LogP. Fill in for each record below.
1. O=C(c1cc(Cl)ncc1Oc1cccc(C(F)(F)F)c1)N(O)CCc1ccc(Cl)cc1
2. COc1cc(C(=O)NCCc2ccc(C)cc2C)c(Oc2cccc(C(F)(F)F)c2)cn1
3. C#Cc1cc(C(=O)OC)c(Oc2cccc(C(F)(F)F)c2)cn1
4. Cc1cc(C(F)F)ccc1C(F)CNC(=O)c1cc(Cl)ncc1Oc1cccc(C(F)(F)F)c1 (racemic)
5. Cc1ccc(CCNC(=O)c2cc(Cl)ncc2Oc2c(F)ccc(C)c2F)c(C)c1

["4.01^[a]", "4.69^[a]", "3.46^[a]", "4.40^[a]", "4.76^[a]"]

State the recorded LogP for every item in the following list.
1. O=C(NCC(F)(F)c1ccc(Br)cc1Cl)c1cc(Cl)ncc1Oc1cccc(C2CC2)c1
2. Cc1ccc(CCNC(=O)c2cc(Cl)ncc2Oc2cccc(I)c2)c(C)c1
3. Cc1ccc(C(F)(F)CNC(=O)c2cc(Cl)nc(Cl)c2Oc2cccc(C(F)(F)F)c2)c(C)c1
4. Cc1ccc(C(F)(F)CNC(=O)c2cc(Cl)ncc2Oc2cccc(C(F)(F)F)c2C)c(C)c1

1: 5.36^[a]; 2: 5.01^[a]; 3: 5.16^[a]; 4: 5.14^[a]
